I'd appreciate it if you could supply relative viability values for the items below.
System: BEN
Experiment: relative viability (nuclei count vs DMSO), 5 days (fraction); higher = more cells survive
Settings: first compound 0.005 µM

stdin: Fill in the blank: the reported relative viability of Nc1ccn([C@@H]2O[C@H](CO)[C@@H](O)[C@@H]2O)c(=O)n1 [Cytarabine] + CS(=O)(=O)CCNCc1ccc(-c2ccc3ncnc(Nc4ccc(OCc5cccc(F)c5)c(Cl)c4)c3c2)o1 [Lapatinib] (partner 2 µM) is ____.
stdout: 0.606

stdin: Fill in the blank: the reported relative viability of Nc1ccn([C@@H]2O[C@H](CO)[C@@H](O)[C@@H]2O)c(=O)n1 [Cytarabine] + CC(C)C[C@H](NC(=O)[C@H](Cc1ccccc1)NC(=O)c1cnccn1)B(O)O [Bortezomib] (partner 0.002 µM) is ____.
stdout: 0.667

stdin: Fill in the blank: the reported relative viability of COc1cc2nccc(Oc3ccc(NC(=O)Nc4cc(C)on4)c(Cl)c3)c2cc1OC [Tivozanib] + Nc1nc2[nH]cc(CCc3ccc(C(=O)N[C@@H](CCC(=O)O)C(=O)O)cc3)c2c(=O)[nH]1 [Pemetrexed] (partner 0.2 µM) is ____.
stdout: 0.647

stdin: Fill in the blank: the reported relative viability of Nc1ccn([C@@H]2O[C@H](CO)[C@@H](O)[C@@H]2O)c(=O)n1 [Cytarabine] + COc1cccc2cc(-c3nc([C@H]4CC[C@H](C(=O)O)CC4)n4ncnc(N)c34)[nH]c12 [OSI-027] (partner 0.5 µM) is ____.
stdout: 0.5
